All figures here come from ChEMBL document CHEMBL5543073.

Test system: SH-SY5Y
Assay notes: Cytotoxicity against human SH-SY5Y cells assessed as inhibition of cell viability incubated for 48 hrs by CCK8 assay
Type: functional, cell-based
pIC50: −log10 of the molar value.
Assay endpoint: pIC50

# annotated cases, reported pIC50 shown
CCCCCCCCCCCCC/C=C/[C@@H](O)[C@H](CO[C@@H]1O[C@H](CO)[C@@H](O[C@@H]2O[C@H](CO)[C@H](O)[C@H](O[C@]3(C(=O)O)C[C@H](O)[C@@H](NC(=O)c4cc(C)cc(C)c4)C([C@@H](O)[C@H](O)CO)O3)[C@H]2O)[C@H](O)[C@H]1O)NC(=O)CCCCCCCCCCCCCCCCC (stereo partly drawn) ... < 3.70
CCCCCCCCCCCCC/C=C/[C@@H](O)[C@H](CO[C@@H]1O[C@H](CO)[C@@H](O[C@@H]2O[C@H](CO)[C@H](O)[C@H](O[C@]3(C(=O)O)C[C@H](O)[C@@H](NC(=O)Cc4cccc([N+](=O)[O-])c4)C([C@@H](O)[C@H](O)CO)O3)[C@H]2O)[C@H](O)[C@H]1O)NC(=O)CCCCCCCCCCCCCCCCC (stereo partly drawn) ... < 3.70

Now let's try a different one.
The molecule CCCCCCCCCCCCC/C=C/[C@@H](O)[C@H](CO[C@@H]1O[C@H](CO)[C@@H](O[C@@H]2O[C@H](CO)[C@H](O)[C@H](O[C@]3(C(=O)O)C[C@H](O)[C@@H](NC(=O)c4cccc([N+](=O)[O-])c4)C([C@@H](O)[C@H](O)CO)O3)[C@H]2O)[C@H](O)[C@H]1O)NC(=O)CCCCCCCCCCCCCCCCC (stereo partly drawn) , when measured on SH-SY5Y, yielded pIC50 of < 3.70

====

System: SH-SY5Y
Assay notes: Cytotoxicity against human SH-SY5Y cells assessed as inhibition of cell viability incubated for 48 hrs by CCK8 assay
Format: functional, cell-based
# IC50 annotations

CCCCCCCCCCCCC/C=C/[C@@H](O)[C@H](CO[C@@H]1O[C@H](CO)[C@@H](O[C@@H]2O[C@H](CO)[C@H](O)[C@H](O[C@]3(C(=O)O)C[C@H](O)[C@@H](NC(=O)Cc4ccc(C)cc4)C([C@@H](O)[C@H](O)CO)O3)[C@H]2O)[C@H](O)[C@H]1O)NC(=O)CCCCCCCCCCCCCCCCC (stereo partly drawn) ... > 200 µM

Entry CCCCCCCCCCCCC/C=C/[C@@H](O)[C@H](CO[C@@H]1O[C@H](CO)[C@@H](O[C@@H]2O[C@H](CO)[C@H](O)[C@H](O[C@]3(C(=O)O)C[C@H](O)[C@@H](NC(=O)Cc4ccc(Br)cc4)C([C@@H](O)[C@H](O)CO)O3)[C@H]2O)[C@H](O)[C@H]1O)NC(=O)CCCCCCCCCCCCCCCCC (stereo partly drawn) ; assay system SH-SY5Y; IC50 recorded at > 200 µM

Hey, SH-SY5Y data for CCCCCCCCCCCCC/C=C/[C@@H](O)[C@H](CO[C@@H]1O[C@H](CO)[C@@H](O[C@@H]2O[C@H](CO)[C@H](O)[C@H](O[C@]3(C(=O)O)C[C@H](O)[C@@H](NC(=O)c4ccncc4)C([C@@H](O)[C@H](O)CO)O3)[C@H]2O)[C@H](O)[C@H]1O)NC(=O)CCCCCCCCCCCCCCCCC (stereo partly drawn) : IC50 came out at > 200 µM
